assay: yeast display, Sf9 membrane polyspecificity reagent, FACS + sequencing; frameworks hold sequencing errors
outcomeMeasure: polyreactivity (PSR sort gate)

Take a look at these entries with their results.
{"biosequence": "QVQLVESGGGLVQAGGSLRISSAASGRTFFTNAKGWYRQAPGKERELVAVITYRGDSTYADSVKGRFTISRDNAKNTVYLQMNSLKPEDTAVYYCNAEFRGGRWFTYDYWGHGTQVTVSS", "outcomeMeasure": "polyreactivity (PSR sort gate)", "readoutValue": "low polyreactivity"}
{"biosequence": "QVHLVESGGGLVQAGGSLRLSCAATGSTFTINAMGWYRQAPGKERELVAAINDGDDTYYADSVKGRFTISRDNAKNTVYLQMNSLKPEDTAVYFCAADIIYGYEVYTYTSDYWGQGTQVTVSS", "outcomeMeasure": "polyreactivity (PSR sort gate)", "readoutValue": "low polyreactivity"}
{"biosequence": "QVQLVESGGGLVQAGGSLRLSCAASGYTFWYYTMGWYRQATGKERELVATISSNGRRTYYADSVKGRFTISRDNAKNTVYLQMNSLYPEDTAVYYCAAVLYRSWVYTTHDYWGHGTQVTVSS", "outcomeMeasure": "polyreactivity (PSR sort gate)", "readoutValue": "high polyreactivity"}
{"biosequence": "QVQLVESGGGLVQAGGSLRLSCAASGSTFGDYAMGWYRQAPGKERELVAAISVSGASTYYADSVKGRFTISRDNAKNTVYLQMNSLKPEDTAVYYCAATYDTIGDSWGQGTQVTVSS", "outcomeMeasure": "polyreactivity (PSR sort gate)", "readoutValue": "low polyreactivity"}
{"biosequence": "QVQLVESGGGLVQAGGSLRLSCAATGLILGRNAMGWYRQAPGKERELVAAITGSGSTNYADSVKGRFTISRDNAKNTVYLQMNSLKPEDTAVYYCAADVRLDPTGLDYLDYDYWGQGTQVTVSS", "outcomeMeasure": "polyreactivity (PSR sort gate)", "readoutValue": "low polyreactivity"}

# per-item lookup of polyreactivity (PSR sort gate); items listed below
1. QVQLVESGGGLVQAGGSLRLSCAASGSILGTYAMGWYRQAPGKVRELVAAISSSGRTSYADSVKGRFTISRDNAKNTGYLQMNSLKPEDTAVYYCNASNYIVLINDPYAAPWLYDYWGQGTQVTVSS
2. QVQLVESGGGLVQAGGSLRLSCAAYGSIFLYYTMGRYRQAPGKERELVAAISRSGGSTYYADSEKGRFTISRDNALNTVYLQMNSLKPEDTAVYFCGSRSGYIYEYWGQGTQVTVSS
3. QVQLVESGGGLVQAGGSLRLSCAASGFTFPYYAMGWYRQAPGKERELVAAINSVGSTYYADSVKGRFTISRDNAKNTVYLQMNSLKPEDTAVYYCNKRPSHWRHYIMDYWGQGTQVTVSS

[reply]
1. low polyreactivity
2. high polyreactivity
3. high polyreactivity

* * *

experiment: yeast display, Sf9 membrane polyspecificity reagent, FACS + sequencing; frameworks hold sequencing errors
outcomeMeasure: polyreactivity (PSR sort gate)

Take a look at these entries with their results.
{"biosequence": "QFQLVESGGGLVQAGGSLRISCAASGSTFVLNAMGWYRQAPGKDREWVAAISQSDYSTYYSDSVKGRFTISRDNAKNTVYLQMNSLKPEDTAVYYSAREYAHLSFLSTSSDYWGQGTQVTVSS", "polyreactivity (PSR sort gate)": "low polyreactivity"}
{"biosequence": "QVQLVESGGGLVQAGGSLRLSCAASGSIFVQNAMGWYRQAPGTERELVAVINSGDSTNYADSVKGRFTISRDNAKNTVDLQMNSLKPEDTAVYYCAVDDVSYYYLRAYNYELSWYCSGLDYWGQGTQVTVSS", "polyreactivity (PSR sort gate)": "low polyreactivity"}
{"biosequence": "QVQLAESGGGLVQAGGSLRLSCAASGRIFSGYAMGWSRQAPGKERELVAAITSVGSTNYADSVKGRFTISRDNAKNTVYLQMNSLKPEDTAVYYCAAKFVRPYRMYYWGQGTQVTVSS", "polyreactivity (PSR sort gate)": "high polyreactivity"}
{"biosequence": "QVQLVESGGGLVQAGGSLRLSCAASGSIIGIYDMGWYRQAPGKERELVAAISWSGGSTYYADSVKGRFTISRDNAKNTVYLQMNSLKPEDTAFYYCAARGHYQYYWGQGTQVTVSS", "polyreactivity (PSR sort gate)": "low polyreactivity"}
{"biosequence": "QVQLVESGGGLVQAGGSLRLSCAASGIIFRYYAMGWYRQAPGKEREFVADISASDGSTYYADSVKGRFTISRDNAKNTVYLQMNSQKPEDTAVSYCNARKYWKYGSYQYYWGQGTEVTVSS", "polyreactivity (PSR sort gate)": "high polyreactivity"}
{"biosequence": "QVQLVESGGGLVQAGGSLRLSCAASGRIFRFYAMGWYRQAPGKERELVASISSTGGSTYYADSVKGRFTISRDNAKNTVYLQMNSLKPEDTAVYYCNTVYGYVTTYGYWGQGTQVTVSS", "polyreactivity (PSR sort gate)": "high polyreactivity"}
{"biosequence": "QVQLVESGGGLVQAGGSLRLSCAASGSIFEFNTMGWYRQAPGKERELVAAISSSGGRTYYADSVKGRFTISRDNAKNTVYLQMNSLKPEDTAVYYCNAVSYYGARYDYWGQGTQVTVSS", "polyreactivity (PSR sort gate)": "high polyreactivity"}
{"biosequence": "QVQLVESGGGLVQAGGSLRLSCAASGLTIRNYAMGWYRQAPGKERELVAAITVSGGSTYYADSVKGRFTISRDNAKNTVYLQMNSLKPEDTAVYYSSARVIHTTYSRNYYYWGQGTQVTVSS", "polyreactivity (PSR sort gate)": "high polyreactivity"}
{"biosequence": "QVQLVESGGGLVQAGGSLRLSCAASGSIFRSNTMGWYRQAPGKERELVAGISYSGGSTYADSVKGRFTISRDNAKNTVYLQMNSLKTEDTAVYYCARRVYSYVVLYFSYYYWGQGTQVTVSS", "polyreactivity (PSR sort gate)": "low polyreactivity"}
{"biosequence": "QVQLVESGGGLVQAGGSLRLSCAASGRIFQDYAMGWYRQAPGKERELVAAITWSGGRTYYADSVKGRFTISRDNAKNTVYLQMNSLKPEDTAVYYCNRLTQSRLYYGPREYYYWGQGTQVTVSS", "polyreactivity (PSR sort gate)": "high polyreactivity"}

Next sequence, please.
For reference, reported polyreactivity (PSR sort gate) for QVQLVESGGGLVQAGCSLRLSCAASGSIFGWYAMGWYRQAPGTERELVAAITLIGGSTYYADSVKGRFTISRDNAKNTVYLQMNSLKPEDTAVYYCNAVWYWGDMDYWGQGTQVTVSS stands at low polyreactivity
